Biological target: human neutrophil elastase (HNE) (Homo sapiens, UniProt P08246)
Sequence (P08246 30-267): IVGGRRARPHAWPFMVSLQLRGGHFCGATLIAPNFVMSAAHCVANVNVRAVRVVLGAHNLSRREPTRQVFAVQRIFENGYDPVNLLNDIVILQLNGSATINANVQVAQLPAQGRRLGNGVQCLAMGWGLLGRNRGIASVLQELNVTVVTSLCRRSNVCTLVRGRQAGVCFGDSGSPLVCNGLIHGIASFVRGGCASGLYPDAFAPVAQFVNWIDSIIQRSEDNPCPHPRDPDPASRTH
Experiment: Human neutrophil elastase inhibition assay (spectrofluorimetric, MeOSuc-AAPV-AMC substrate)
parameter-measured: IC50 (nM)

                                   compound                                 tested_on  parameter_measured  reported_result
0  CCC1(CC)C(=O)N(c2ccc(-c3csc(Nc4cccc5ccccc45)n3)cc2)C1=O [3h]  human neutrophil elastase (HNE) (Homo sapiens, UniProt P08246)                IC50             44.6
1  CCC1(CC)C(=O)N(c2ccc(-c3csc(Nc4ccc(S(N)(=O)=O)cc4)n3)cc2)C1=O [3e]  human neutrophil elastase (HNE) (Homo sapiens, UniProt P08246)                IC50               35
2  CCC1(CC)C(=O)N(c2ccc(-c3csc(Nc4c(F)c(F)c(F)c(F)c4F)n3)cc2)C1=O [3d]  human neutrophil elastase (HNE) (Homo sapiens, UniProt P08246)                IC50              110

a = CCC1(CC)C(=O)N(c2ccc(-c3csc(Nc4ccc5[nH]ncc5c4)n3)cc2)C1=O [3g]
b = CCC1(CC)C(=O)N(c2ccc(-c3csc(Nc4ccc(C(F)(F)F)cc4)n3)cc2)C1=O [3i]
input: # argmax over IC50 for candidates a and b Your choice should be expressed through its label.
output: a
(a: 312 nM, b: 168 nM)

a = CCC1(CC)C(=O)N(c2ccc(-c3csc(Nc4cc(C)cc(C)c4)n3)cc2)C1=O [3f]
b = CCC1(CC)C(=O)N(c2ccc(-c3csc(Nc4cc(OC)c(OC)c(OC)c4)n3)cc2)C1=O [3c]
input: # argmax over IC50 for candidates a and b Your choice should be expressed through its label.
output: a
(a: 244 nM, b: 38.2 nM)

----------
biological target: human neutrophil elastase (HNE) (Homo sapiens); experiment: Kinetic analysis of the inhibition of human neutrophil elastase (Lineweaver-Burk, Dixon, secondary plots); assay type: biochemical; conditions: secondary plot of intercept versus inhibitor concentration
parameter-measured: Kis (enzyme-substrate-inhibitor dissociation constant) (nM)

>>> df
                                   compound  reported_result
0  CCC1(CC)C(=O)N(c2ccc(-c3csc(Nc4ccc(S(N)(=O)=O)cc4)n3)cc2)C1=O [3e]           240.00
1  CCC1(CC)C(=O)N(c2ccc(-c3csc(Nc4ccc(C(F)(F)F)cc4)n3)cc2)C1=O [3i]           425.00
2  CCC1(CC)C(=O)N(c2ccc(-c3csc(Nc4ccc(F)cc4)n3)cc2)C1=O [3b]            65.50

P = CCC1(CC)C(=O)N(c2ccc(-c3csc(Nc4c(F)c(F)c(F)c(F)c4F)n3)cc2)C1=O [3d]
Q = CCC1(CC)C(=O)N(c2ccc(-c3csc(Nc4cc(C)cc(C)c4)n3)cc2)C1=O [3f]
R = CCC1(CC)C(=O)N(c2ccc(-c3csc(Nc4cc(OC)c(OC)c(OC)c4)n3)cc2)C1=O [3c]
S = CCC1(CC)C(=O)N(c2ccc(-c3csc(Nc4ccc5[nH]ncc5c4)n3)cc2)C1=O [3g]
input: Would you mind ranking these compounds by ascending Kis (enzyme-substrate-inhibitor dissociation constant)? Ranked list of labels, please, in the requested order.
output: P, R, S, Q
(P: 49.33 nM, R: 99.50 nM, S: 171.25 nM, Q: 426.00 nM)

a = CCC1(CC)C(=O)N(c2ccc(-c3csc(Nc4cccc5ccccc45)n3)cc2)C1=O [3h]
b = CCC1(CC)C(=O)N(c2ccc(-c3csc(Nc4ccc(Cl)cc4)n3)cc2)C1=O [3a]
input: # argmax over Kis (enzyme-substrate-inhibitor dissociation constant) for candidates a and b Your choice should be expressed through its label.
output: b

----------
system: lung carcinoma (A549) cells; assay: Antiproliferative assay (MTT or SRB), A549; type: cell-based, human; details: IC50 Balb/3T3 / IC50 A-549
Measured Calculated Selectivity Index SI, listed per entry.
# respond with the number and nothing more

Reference set, count: 5
>>> df
                      smiles_representation                    tested_on  reported_result
0  CCC1(CC)C(=O)N(c2ccc(-c3csc(Nc4ccc(Cl)cc4)n3)cc2)C1=O  lung carcinoma (A549) cells             1.55
1  CCC1(CC)C(=O)N(c2ccc(-c3csc(Nc4cccc5ccccc45)n3)cc2)C1=O  lung carcinoma (A549) cells             2.44
2  CCC1(CC)C(=O)N(c2ccc(-c3csc(Nc4c(Cl)cc(Cl)cc4Cl)n3)cc2)C1=O  lung carcinoma (A549) cells             5.55
3  CCC1(CC)C(=O)N(c2ccc(-c3csc(Nc4cc(C)cc(C)c4)n3)cc2)C1=O  lung carcinoma (A549) cells             3.27
4  CCC1(CC)C(=O)N(c2ccc(-c3csc(Nc4ccc(S(N)(=O)=O)cc4)n3)cc2)C1=O  lung carcinoma (A549) cells             1.04

With those in mind, consider the next compound.
input: Give Calculated Selectivity Index SI for the following compound: CCC1(CC)C(=O)N(c2ccc(-c3csc(Nc4ccc(F)cc4)n3)cc2)C1=O
output: 1.57

----------
System: human breast adenocarcinoma (MDA-MB-231) cells
Experiment: Antiproliferative assay (MTT or SRB), MDA-MB-231
Assay type: cell-based
Conditions: Homo sapiens, MDA-MB-231; read-out: IC50 ± SD, antiproliferative activity
Protocol: Cell preparation, an in vitro antiproliferative assay, and MTT and SRB cytotoxic tests were performed according to the literature.
parameter-measured: IC50 (µM)

Reference set, count: 4
                      smiles_representation  parameter_measured  result_unit  reported_result
0  CCC1(CC)C(=O)N(c2ccc(-c3csc(Nc4cccc5ccccc45)n3)cc2)C1=O                IC50           µM             14.6
1  CCC1(CC)C(=O)N(c2ccc(-c3csc(Nc4ccc5[nH]ncc5c4)n3)cc2)C1=O                IC50           µM             6.19
2  CCC1(CC)C(=O)N(c2ccc(-c3csc(Nc4cc(C)cc(C)c4)n3)cc2)C1=O                IC50           µM             12.5
3  CCC1(CC)C(=O)N(c2ccc(-c3csc(Nc4ccc(F)cc4)n3)cc2)C1=O                IC50           µM             9.34

1 = CCC1(CC)C(=O)N(c2ccc(-c3csc(Nc4c(F)c(F)c(F)c(F)c4F)n3)cc2)C1=O
2 = CCC1(CC)C(=O)N(c2ccc(-c3csc(Nc4ccc(C(F)(F)F)cc4)n3)cc2)C1=O
3 = CCC1(CC)C(=O)N(c2ccc(-c3csc(Nc4ccc(S(N)(=O)=O)cc4)n3)cc2)C1=O
input: Parameters: sort_field (IC50), sort_dir (desc). Ranked list of labels, please, in the requested order.
output: 1, 2, 3
(1: 72.1 µM, 2: 11.7 µM, 3: 6.42 µM)

----------
Target: human neutrophil elastase (HNE) (Homo sapiens, UniProt P08246)
Sequence (P08246 30-267): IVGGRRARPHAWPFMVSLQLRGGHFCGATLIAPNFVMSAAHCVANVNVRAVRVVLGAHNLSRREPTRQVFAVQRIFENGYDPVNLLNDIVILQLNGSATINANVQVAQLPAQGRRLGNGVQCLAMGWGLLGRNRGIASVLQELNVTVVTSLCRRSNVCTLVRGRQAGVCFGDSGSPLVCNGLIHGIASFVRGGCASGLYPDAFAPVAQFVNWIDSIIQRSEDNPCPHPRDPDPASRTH
Assay: Kinetic analysis of the inhibition of human neutrophil elastase (Lineweaver-Burk, Dixon, secondary plots)
Type: biochemical
Conditions: Lineweaver-Burk and Dixon analysis
parameter-measured: Inhibition Type

Reference set, count: 5
>>> df
                                   molecule  parameter_measured          reported_result
0  CCC1(CC)C(=O)N(c2ccc(-c3csc(Nc4ccc(F)cc4)n3)cc2)C1=O [3b]     Inhibition Type                    mixed
1  CCC1(CC)C(=O)N(c2ccc(-c3csc(Nc4ccc5[nH]ncc5c4)n3)cc2)C1=O [3g]     Inhibition Type  mixed type I inhibition
2  CCC1(CC)C(=O)N(c2ccc(-c3csc(Nc4c(Cl)cc(Cl)cc4Cl)n3)cc2)C1=O [3j]     Inhibition Type                    mixed
3  CCC1(CC)C(=O)N(c2ccc(-c3csc(Nc4ccc(Cl)cc4)n3)cc2)C1=O [3a]     Inhibition Type                    mixed
4  CCC1(CC)C(=O)N(c2ccc(-c3csc(Nc4c(F)c(F)c(F)c(F)c4F)n3)cc2)C1=O [3d]     Inhibition Type                    mixed

With those in mind, consider the next molecule.
input: Determine reported Inhibition Type for CCC1(CC)C(=O)N(c2ccc(-c3csc(Nc4cc(OC)c(OC)c(OC)c4)n3)cc2)C1=O [3c] ; test system: human neutrophil elastase (HNE) (Homo sapiens, UniProt P08246).
output: mixed type I inhibition
